# target-or-test-system: Integrin alpha-4/beta-1 (Homo sapiens, UniProt P05556+P13612)
# Sequence (P05556 whole entry): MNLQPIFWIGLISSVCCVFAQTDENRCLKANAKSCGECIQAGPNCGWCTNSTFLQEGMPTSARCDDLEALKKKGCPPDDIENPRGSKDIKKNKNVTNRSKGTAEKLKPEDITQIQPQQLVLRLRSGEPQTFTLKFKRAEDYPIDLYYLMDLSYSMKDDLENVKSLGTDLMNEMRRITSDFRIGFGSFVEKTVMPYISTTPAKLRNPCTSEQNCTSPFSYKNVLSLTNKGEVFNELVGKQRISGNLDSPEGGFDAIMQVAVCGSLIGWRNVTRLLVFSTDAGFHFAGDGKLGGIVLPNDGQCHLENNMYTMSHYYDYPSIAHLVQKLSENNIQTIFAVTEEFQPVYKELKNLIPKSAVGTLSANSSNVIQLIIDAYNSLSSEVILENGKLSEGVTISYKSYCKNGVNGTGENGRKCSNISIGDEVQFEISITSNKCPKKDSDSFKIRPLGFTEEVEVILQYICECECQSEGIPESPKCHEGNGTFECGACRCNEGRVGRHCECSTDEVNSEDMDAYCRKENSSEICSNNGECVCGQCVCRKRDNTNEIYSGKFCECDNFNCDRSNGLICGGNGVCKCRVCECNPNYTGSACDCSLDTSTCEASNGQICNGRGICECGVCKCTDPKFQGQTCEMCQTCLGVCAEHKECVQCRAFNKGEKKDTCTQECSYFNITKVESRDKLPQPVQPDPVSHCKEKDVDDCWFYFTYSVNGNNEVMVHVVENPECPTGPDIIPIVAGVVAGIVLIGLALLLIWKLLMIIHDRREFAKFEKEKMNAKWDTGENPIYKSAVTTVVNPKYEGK
# Sequence (P13612 whole entry): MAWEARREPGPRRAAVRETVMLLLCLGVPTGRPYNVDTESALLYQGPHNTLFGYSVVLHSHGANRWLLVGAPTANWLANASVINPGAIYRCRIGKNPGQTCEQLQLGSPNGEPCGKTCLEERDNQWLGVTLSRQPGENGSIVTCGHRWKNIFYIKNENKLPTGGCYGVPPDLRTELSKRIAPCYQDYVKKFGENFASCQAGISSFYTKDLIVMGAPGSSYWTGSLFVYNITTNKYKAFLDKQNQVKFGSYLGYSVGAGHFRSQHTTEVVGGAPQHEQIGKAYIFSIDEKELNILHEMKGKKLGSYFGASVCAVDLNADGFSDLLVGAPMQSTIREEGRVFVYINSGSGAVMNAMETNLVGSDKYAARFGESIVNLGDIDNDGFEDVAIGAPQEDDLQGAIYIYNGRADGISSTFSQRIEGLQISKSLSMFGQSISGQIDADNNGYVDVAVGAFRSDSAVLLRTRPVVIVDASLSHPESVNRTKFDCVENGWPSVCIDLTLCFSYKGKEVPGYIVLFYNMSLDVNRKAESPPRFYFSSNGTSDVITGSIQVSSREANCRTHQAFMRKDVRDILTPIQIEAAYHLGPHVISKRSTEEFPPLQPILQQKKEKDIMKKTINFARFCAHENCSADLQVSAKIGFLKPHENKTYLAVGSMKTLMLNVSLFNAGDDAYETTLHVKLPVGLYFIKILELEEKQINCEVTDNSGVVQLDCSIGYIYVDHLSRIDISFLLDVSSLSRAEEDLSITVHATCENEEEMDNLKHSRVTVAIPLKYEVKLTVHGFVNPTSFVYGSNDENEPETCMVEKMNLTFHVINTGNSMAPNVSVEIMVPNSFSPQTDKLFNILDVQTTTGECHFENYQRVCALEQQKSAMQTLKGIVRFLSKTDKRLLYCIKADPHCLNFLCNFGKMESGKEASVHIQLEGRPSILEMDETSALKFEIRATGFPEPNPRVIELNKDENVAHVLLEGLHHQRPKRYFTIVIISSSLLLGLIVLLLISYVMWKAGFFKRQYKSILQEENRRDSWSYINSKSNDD
# protocol: Inhibitory binding concentration determined against VCAM/VLA-4 in Ramos
# Type: protein-complex assay
The following compounds are shown together with reported IC50 values.
Output spec: scalar in nM, unitless text.

Worked examples, 3 compounds total:
| substance-smiles | target-or-test-system | IC50 [nM] |
| --- | --- | --- |
| CN(C)CCC1(C(=O)N[C@@H](Cc2ccc(NC(=O)c3c(Cl)cccc3Cl)cc2)C(=O)O)CCCC1 | Integrin alpha-4/beta-1 (Homo sapiens, UniProt P05556+P13612) | 89 |
| [N-]=[N+]=NCCCCC1(C(=O)N[C@@H](Cc2ccc(NC(=O)c3c(Cl)cccc3Cl)cc2)C(=O)O)CCCC1 | Integrin alpha-4/beta-1 (Homo sapiens, UniProt P05556+P13612) | 142 |
| COc1cccc(CC2(C(=O)N[C@@H](Cc3ccc(NC(=O)c4c(Cl)cccc4Cl)cc3)C(=O)O)CCCC2)c1 | Integrin alpha-4/beta-1 (Homo sapiens, UniProt P05556+P13612) | 170 |

// next entry
Form: Entry = CNC(=O)NCCC1(C(=O)N[C@@H](Cc2ccc(NC(=O)c3c(Cl)cccc3Cl)cc2)C(=O)O)CCCC1 | System = Integrin alpha-4/beta-1 (Homo sapiens, UniProt P05556+P13612) | IC50 = ____
11

* * *

# target-or-test-system: Integrin alpha-4/beta-1 (Homo sapiens, UniProt P05556+P13612)
# protocol: Inhibitory binding concentration determined against VCAM/VLA-4 in ELISA
# Assay type: protein-complex assay
pIC50: −log10 of the molar value.
Where pIC50 equals or exceeds 9, the correct label is yes (1); where it does not, the label is no (0).

Below, 4 compounds whose answers are already recorded.
| substance-smiles | assigned-label |
| --- | --- |
| O=C(NCCC1(C(=O)N[C@@H](Cc2ccc(NC(=O)c3c(Cl)cccc3Cl)cc2)C(=O)O)CCCC1)Nc1ccccc1 | no (0) |
| N#CCCCCC1(C(=O)N[C@@H](Cc2ccc(NC(=O)c3c(Cl)cccc3Cl)cc2)C(=O)O)CCCC1 | yes (1) |
| [N-]=[N+]=NCCC1(C(=O)N[C@@H](Cc2ccc(NC(=O)c3c(Cl)cccc3Cl)cc2)C(=O)O)CCCC1 | yes (1) |
| Cn1nnnc1-c1cccc(CC2(C(=O)N[C@@H](Cc3ccc(NC(=O)c4c(Cl)cccc4Cl)cc3)C(=O)O)CCCC2)c1 | yes (1) |

Shifting focus to the compound that follows.
State whether the measured pIC50 reaches 9, counting equality as reaching it, for CNC(=O)NCCC1(C(=O)N[C@@H](Cc2ccc(NC(=O)c3c(Cl)cccc3Cl)cc2)C(=O)O)CCCC1
yes (1)

* * *

# target-or-test-system: Integrin alpha-4/beta-1 (Homo sapiens, UniProt P05556+P13612)
# protocol: Inhibitory binding concentration determined against VCAM/VLA-4 in ELISA
# Assay type: protein-complex assay
Hi! Could you tag entries with IC50 below 2 nM as MET, and those at or above as NOT MET? Much appreciated.

| substance-smiles | target-or-test-system | assigned-label |
| --- | --- | --- |
| Cn1nnnc1-c1ccc(CC2(C(=O)N[C@@H](Cc3ccc(NC(=O)c4c(Cl)cccc4Cl)cc3)C(=O)O)CCCCC2)cc1 | Integrin alpha-4/beta-1 (Homo sapiens, UniProt P05556+P13612) | MET |
| O=C(Nc1ccc(C[C@H](NC(=O)C2(c3ccccc3)CCCC2)C(=O)O)cc1)c1c(Cl)cccc1Cl | Integrin alpha-4/beta-1 (Homo sapiens, UniProt P05556+P13612) | MET |

Decide: IC50 of COCC1(C(=O)N[C@@H](Cc2ccc(NC(=O)c3c(Cl)cccc3Cl)cc2)C(=O)O)CCCC1 strictly below 2 nM?
MET

Would you kindly verify if IC50 of NC(=O)NCCC1(C(=O)N[C@@H](Cc2ccc(NC(=O)c3c(Cl)cccc3Cl)cc2)C(=O)O)CCCC1 is strictly less than 2 nM?
MET

IC50 strictly < 2 nM for this molecule? CC(=O)CCCC1(C(=O)N[C@@H](Cc2ccc(NC(=O)c3c(Cl)cccc3Cl)cc2)C(=O)O)CCCC1
NOT MET

Is the reported IC50 for O=C(Nc1ccc(C[C@H](NC(=O)C2(Cc3ccccc3)CCCC2)C(=O)O)cc1)c1c(Cl)cccc1Cl strictly below 2 nM?
NOT MET

# TODO verify IC50 < 2 nM strictly for this molecule: COc1ccc(CC2(C(=O)N[C@@H](Cc3ccc(NC(=O)c4c(Cl)cccc4Cl)cc3)C(=O)O)CCCC2)cc1
MET

Quick check: IC50 of CN(C)CCC1(C(=O)N[C@@H](Cc2ccc(NC(=O)c3c(Cl)cccc3Cl)cc2)C(=O)O)CCCC1 under 2 nM?
NOT MET
